Attribution: ChEMBL document CHEMBL1201862

- System: SN12C
- method: NCI tumour cell line growth inhibition, 48 h
Active and inactive are the calls of the source. Rule as the data show it: active = GI50 up to about 1.1 µM and inactive = higher.
Item-by-item account of GI50

- c1ccc2c3c(ccc2c1)CSCc1ccc2ccccc2c1-3: > 100 µM (inactive)
- CC(C(=O)COCc1ccccc1)P1(=O)OC(C)(C)CN1C(C)(C)C (centres undefined): > 100 µM (inactive)
- CN(C)CCCNC(=O)CCNC(=O)c1cc(NC(=O)c2cc(NC(=O)c3cc(NC(=O)c4nc(NC(=O)CCCNC(=O)c5cc(NC(=O)c6cc(NC(=O)c7cc(NC(=O)c8nccn8C)cn7C)cn6C)cn5C)cn4C)cn3C)cn2C)cn1C: > 100 µM (inactive)
- CCN(CC)c1ccc(C2Nc3ccc4ccccc4c3C3=C2C(=O)CCC3)cc1 (centres undefined): 42 µM (inactive)

Reported GI50, molecule "CC(C)(C)C1=CC(C)(n2[nH]c(=O)n(-c3ccccc3)c2=O)C=C(C(C)(C)C)C1=O" : ____
> 100 µM (inactive)

Reported GI50, molecule CCOP(=O)(OCC)C1C(CO)OC(n2ccc(=O)[nH]c2=O)C1O (centres undefined) : ____
> 100 µM (inactive)

Reported GI50, molecule COc1ccc(OC)c2c1C=C[C@H](C1(C)SCCS1)C2C(C)=O (some centres undefined) : ____
35.3 µM (inactive)

Reported GI50, molecule CCCCC1CC(c2cccc([N+](=O)[O-])c2)=NO1 (centres undefined) : ____
> 100 µM (inactive)

====

- Tested on: U-251
- method: NCI tumour cell line growth inhibition, 48 h
The source made the active and inactive calls. No stated cut-off is given here; in the data, active = GI50 up to about 1.1 µM and inactive = higher.
value type: GI50

Reference set (2 entries):
- COc1ccc2c(c1)CCC(CN1CCN(CCOC(c3ccccc3)c3ccccc3)CC1)C2O (stereo not given): 14.8 µM (inactive)
- Nc1c(/N=N/c2ccc(-c3ccc(/N=N/c4c(O)ccc5cc(S(=O)(=O)O)cc(S(=O)(=O)O)c45)cc3)cc2)c(S(=O)(=O)O)cc2cc(S(=O)(=O)O)c(/N=N/c3ccccc3)c(O)c12: > 100 µM (inactive)

Reported GI50, molecule "C/C=C/c1cc2c(c(=O)o1)C(=O)[C@@H](O)[C@H](C)O2" : ____
17.6 µM (inactive)

Reported GI50, molecule "COc1ccc2cc(/C=N\NC(=O)Nc3cccc4ccccc34)ccc2c1" : ____
16.4 µM (inactive)

Reported GI50, molecule OC(c1ccoc1)c1cc2ccccc2s1 (stereo not given) : ____
> 10 µM (inactive)

====

- Test system: K562
- method: NCI tumour cell line growth inhibition, 48 h
The source made the active and inactive calls. Cut-off read from the data, not from the text of the source: active = GI50 up to about 1.1 µM and inactive = higher.
value type: GI50

Reported GI50, compound COc1ccc(OC)c2c1C=C[C@H](C1(C)SCCS1)C2C(C)=O (some centres not stated) : ____
32.7 µM (inactive)

Reported GI50, compound CC1=C2[C@@H](c3ccccc3)C3C=CC2(C=C3C(F)(F)F)N(C(=O)NC2CCCCC2)C1=O (some centres not stated) : ____
36.6 µM (inactive)

Reported GI50, compound O=C1CC23CC(=O)CC2(C1)c1ccccc1C3=O (configuration not stated) : ____
> 100 µM (inactive)

====

- System: OVCAR-8
- method: NCI tumour cell line growth inhibition, 48 h
Activity calls are given as the source filed them. Cut-off read from the data, not from the text of the source: active = GI50 up to about 1.1 µM and inactive = higher.
Your response should consist of one outcome taken from active, inactive

Returns: the outcome recorded for "CNS(=O)(=O)NNS(=O)(=O)c1ccc(Cl)cc1" in this assay.
inactive

Returns: the outcome recorded for "Oc1cnnc2nc3ccccc3n12" in this assay.
inactive

Returns: the outcome recorded for "C[C@]12CC[C@H]3[C@@H](CCC4=CC(=O)C=C[C@@]43OC(=O)C(F)(F)F)[C@@H]1CCC2=O" in this assay.
inactive

Returns: the outcome recorded for CC(=O)Nc1ccc(C(=O)NN2C(=O)C(Cl)C2c2ccc(Cl)cc2)cc1 (configuration not stated) in this assay.
inactive

Returns: the outcome recorded for "CCOC(=O)Cc1csc(Nc2ccc(OCC)cc2)n1" in this assay.
inactive

Returns: the outcome recorded for COc1cccc(C2SCC(=O)N2c2ccc(-n3c(-c4ccccc4)nc4ccccc4c3=O)cc2)c1OC (configuration not stated) in this assay.
inactive

Returns: the outcome recorded for COc1ccc(C2(Cl)C(Cl)(C(F)(F)F)C2(Cl)C(F)(F)F)cc1 (configuration not stated) in this assay.
inactive

Returns: the outcome recorded for "O=P(O)(O)CN1CCN(CP(=O)(O)O)CCN(CP(=O)(O)O)CCN(CP(=O)(O)O)CC1" in this assay.
inactive

Returns: the outcome recorded for "CC#Cc1c(C#CC)c(OC)c2c(c1OC)C(=O)c1ccccc1C2=O" in this assay.
inactive

Returns: the outcome recorded for "COc1cc2cc(c1Cl)N(C)C(=O)C[C@H](OC(=O)[C@H](C)N(C)C(C)=O)[C@]1(C)O[C@H]1[C@H](C)[C@@H]1C[C@@](O)(NC(=O)O1)[C@H](OC)/C=C/C=C(/C)C2" in this assay.
active

Returns: the outcome recorded for "C[N+](C)(C)CC(=O)N/N=C\c1c(O)ccc2ccccc12" in this assay.
inactive

Returns: the outcome recorded for "COc1ccc(CNc2nc3ccccc3nc2-c2cccs2)cc1" in this assay.
inactive

Returns: the outcome recorded for "COc1cc(/C=C/c2ccc(C)cc2)cc(OC)c1OC" in this assay.
inactive

Returns: the outcome recorded for "Nc1nc(Cl)cc(NCC2(CO)COC2)n1" in this assay.
inactive

Returns: the outcome recorded for "Cc1n[nH]c(=O)n1/N=C\c1ccccc1" in this assay.
inactive

Returns: the outcome recorded for "Cc1c(CCl)c(=O)oc2c(C)c3occ(CCl)c(=O)c3cc12" in this assay.
inactive

Returns: the outcome recorded for CC(=O)OC1[C@H]2c3cc4c(cc3CN3CCC(=C[C@@H]1O)C23)OCO4 (some centres not stated) in this assay.
inactive

Returns: the outcome recorded for COc1cccc(C2CC(C)=Nc3c(ccc4c3C(=O)c3ccccc3C4=O)N2)c1O (configuration not stated) in this assay.
inactive

Returns: the outcome recorded for "CCOc1ccc(/N=N/c2ccc3oc(=O)c(C(=O)Nc4ccc(OC)cc4)cc3c2)cc1" in this assay.
inactive

Returns: the outcome recorded for "C/C(=N/NC(=O)c1ccccc1O)c1ccc(/C(C)=N\NC(=O)c2ccccc2O)c2nc3cc(C)c(C)cc3nc12" in this assay.
inactive
